Provenance of the data: the supplement of paper PMC9116672

We begin with a simple list: items and their reported duplex formation entropy ΔS.
# assay details: duplex formation entropy ΔS (Van't Hoff fit of HRM Tm); higher = smaller entropy loss on duplex formation
# condition set: temperature for dG: 50 °C; NaCl: 500 mM (unadjusted); backbone: PS-PS (both strands fully phosphorothioate)
// note: answer is a bare numeric in cal/mol/K

Examples with answers:
Q) Fill in: duplex formation entropy ΔS of GCGGTTGGTGGCCAAC is ___
A) -197

Q) duplex formation entropy ΔS lookup needed for AGCTGAGCCTGCCGCC , thanks.
A) -195

Q) Given the sequence GTGAGCAGAAGGGGTT , what is its reported duplex formation entropy ΔS?
A) -174

Q) What duplex formation entropy ΔS value was documented for this sequence, CTCGGAGGCCCCATTTA ?
A) -194

Q) Item CTTTTGTGCGGGTAGC has what recorded duplex formation entropy ΔS?
A) -156

Q) What does the data say about its duplex formation entropy ΔS? Entry: CGGTGCTTTTGGTAGC
A) -184

Kindly review the next sequence as well.
Q) Quick one: duplex formation entropy ΔS of CAAGCCTCGATTTTGT ?
A) -167

* * *

# assay details: duplex formation free energy ΔG50 (Van't Hoff fit of HRM Tm); higher = less stable duplex
# condition set: temperature for dG: 50 °C; NaCl: 500 mM (unadjusted); backbone: PS-PS (both strands fully phosphorothioate)
quantity: duplex formation free energy ΔG50 (kcal/mol)
Kindly answer with a numeric value in kcal/mol, unit omitted.

Q) Which measured duplex formation free energy ΔG50 value corresponds to CGTGCAGCACTACTTG ?
A) -9.89

Q) # input sequence: TTCTACATCCATCTTAATCCCA ; wanted: its duplex formation free energy ΔG50
A) -9.75

Q) Name the recorded duplex formation free energy ΔG50 for CGACATGTATGGCACAG .
A) -9.88

* * *

# assay details: duplex melting temperature (HRM, EvaGreen); higher = more stable duplex
# condition set: duplex concentration 2.5 µM; backbone: PS-PO (listed strand fully phosphorothioate, complement phosphodiester)
Binary call on duplex melting temperature: Met from 60 °C upward, Not met beneath that.

# count of solved cases: 3
Q) I'd appreciate it if you could say whether AGCACGGTGGTACAACA has duplex melting temperature at least equal to 60 °C.
A) Met

Q) Test whether the sequence CCACTAGCGGCGCCGTT records duplex melting temperature of 60 °C or higher.
A) Met

Q) Has CTACCAGCGGCGCCGTT a recorded duplex melting temperature greater than or equal to 60 °C?
A) Met

Continuing:
Q) Does duplex melting temperature meet or surpass 60 °C for GAACCGTTGATGATCTC ?
A) Not met

* * *

# assay details: duplex formation entropy ΔS (Van't Hoff fit of HRM Tm); higher = smaller entropy loss on duplex formation
# condition set: temperature for dG: 50 °C; NaCl: 500 mM (unadjusted); backbone: PO-PO (both strands phosphodiester DNA)
Measured duplex formation entropy ΔS, listed per entry.

These recorded examples may help you get a feel for the data.
Q) # duplex formation entropy ΔS lookup, item GAACTGCCACTACCAA
A) -178 cal/mol/K

Q) For CAAACTTAGTAATCACGCCCAGCAACCA , what is its reported duplex formation entropy ΔS?
A) -372 cal/mol/K

Q) Tell me the measured duplex formation entropy ΔS of TCTCGCGGTTCCATTA , please.
A) -152 cal/mol/K

Others:
Q) Would you mind telling me what duplex formation entropy ΔS value was observed for TCTACACCGCGA ?
A) -135 cal/mol/K

Q) Given the entry AGCTGAGCCTGCCGCC , report its measured duplex formation entropy ΔS.
A) -252 cal/mol/K

Q) Given the sequence CGGTGCTTTTGGTAGC , what is its reported duplex formation entropy ΔS?
A) -204 cal/mol/K

Q) Would you kindly share the measured duplex formation entropy ΔS for ATAACTTACTCTCGCCT ?
A) -201 cal/mol/K

Q) Entry GAGCAGAAGGGGTTGT has what duplex formation entropy ΔS?
A) -173 cal/mol/K

Q) Suppose we examine the sequence TAATTATACGAGTAGTTTCTGTCCTG ; what duplex formation entropy ΔS value has been reported?
A) -340 cal/mol/K

Q) Which duplex formation entropy ΔS reading was recorded for the sequence CCGTTGCTGCTAGG ?
A) -172 cal/mol/K

Q) Return reported duplex formation entropy ΔS; argument: AGGAGTGAATGAAATGG
A) -179 cal/mol/K

Q) Requested read-out: duplex formation entropy ΔS. Entry: GAACCGTTGATGATCTC
A) -208 cal/mol/K

Q) I have this sequence here, CTTTTGTGCGGGTAGC , and I need its recorded duplex formation entropy ΔS.
A) -179 cal/mol/K

Q) Find the recorded duplex formation entropy ΔS belonging to GCAGGAGCCGCGACCTG and report it.
A) -257 cal/mol/K

Q) GET /values?readout=duplex formation entropy ΔS&item= AATGTCGAACAGCAATT
A) -192 cal/mol/K

Q) Suppose we examine the sequence TGCCATGTTGAAAACC ; what duplex formation entropy ΔS value has been reported?
A) -207 cal/mol/K

Q) For the sequence shown here, TTAACCTGCAATGGATC , give the reported duplex formation entropy ΔS.
A) -176 cal/mol/K

Q) Look up duplex formation entropy ΔS for this sequence: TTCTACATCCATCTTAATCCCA
A) -262 cal/mol/K

Q) Looking for the measured duplex formation entropy ΔS of CCGCTCAGAGTAGAGA , can you help?
A) -187 cal/mol/K

Q) # query: duplex formation entropy ΔS of entry ACTCGCTCTACCTTAAT
A) -175 cal/mol/K

Q) Quick one: duplex formation entropy ΔS of GATCTCTCTATCATCGTTTATTGGGTAT ?
A) -377 cal/mol/K

Q) Param item = CGTGCAGCACTACTTG ; retrieve measured duplex formation entropy ΔS.
A) -181 cal/mol/K

Q) What measured duplex formation entropy ΔS goes with CTCAGAGTAGAGCCGA ?
A) -179 cal/mol/K

Q) Which measured duplex formation entropy ΔS value corresponds to TACTTCCAACGTAGG ?
A) -159 cal/mol/K

Q) Field request: duplex formation entropy ΔS | item: AACGAATGTCAGCAATT
A) -192 cal/mol/K

Q) Would you kindly share the measured duplex formation entropy ΔS for GGTTGCGGTGGCCAAC ?
A) -213 cal/mol/K
